- TESTED ON: human Y4 receptor (Homo sapiens, UniProt P50391)
- Construct: expressed in transfected cells
- Sequence (P50391 whole entry): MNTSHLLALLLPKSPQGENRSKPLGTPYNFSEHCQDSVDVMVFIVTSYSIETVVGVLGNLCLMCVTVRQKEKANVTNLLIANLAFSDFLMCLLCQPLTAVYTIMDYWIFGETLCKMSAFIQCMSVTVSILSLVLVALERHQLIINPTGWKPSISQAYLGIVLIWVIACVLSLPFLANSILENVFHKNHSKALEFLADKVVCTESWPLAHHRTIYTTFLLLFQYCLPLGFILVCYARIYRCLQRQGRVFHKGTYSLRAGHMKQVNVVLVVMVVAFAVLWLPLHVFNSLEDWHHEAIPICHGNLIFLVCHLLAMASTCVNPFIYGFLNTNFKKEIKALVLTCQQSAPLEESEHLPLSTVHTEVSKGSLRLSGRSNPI
- TEST NAME: NPY4 cAMP HTRF Agonist Assay (inhibitory cAMP assay, Gi activation by Y4 agonism)
- Assay type: cell-based
- DETAILS: second TABLE 1, R2 is Phenyl-CF3; read-out: hY4 CAMP EC50
OUTCOME MEASURE: EC50 (nM)

Answered examples (2):
> print(dat)
                    structure.smiles.string  reported.value
1  CC(C)NC(=O)c1cccc(-c2ccnc(N[C@@H]3CCCC[C@H]3N[C@H]3CCCN(c4ccc(C(F)(F)F)cc4)C3)c2)c1              20
2  Oc1ccc(-c2ccnc(N[C@@H]3CCCC[C@H]3N[C@H]3CCCN(c4ccc(C(F)(F)F)cc4)C3)c2)cc1              27

(P) FC(F)(F)c1ccc(N2CCC[C@H](N[C@@H]3CCCC[C@H]3Nc3cc(-c4ccc5c(c4)CNCC5)ccn3)C2)cc1
(Q) OCCCC#Cc1ccnc(N[C@@H]2CCCC[C@H]2N[C@H]2CCCN(c3ccc(C(F)(F)F)cc3)C2)c1
input: Higher EC50 between P and Q ? Could you answer with the label of the item you picked?
output: P

###

- TESTED ON: human Y4 receptor (Homo sapiens, UniProt P50391)
- Construct: expressed in transfected cells
- TEST NAME: NPY4 cAMP HTRF Agonist Assay (inhibitory cAMP assay, Gi activation by Y4 agonism)
- Assay type: cell-based
- DETAILS: human Y4 receptor, cAMP; read-out: hY4 CAMP EC50
OUTCOME MEASURE: EC50 (nM)

Answered examples (8):
> print(dat)
                                   compound  unit.of.measure  reported.value
1  NC(=O)c1cccc(-c2ccnc(N[C@@H]3CCCC[C@H]3N[C@H]3CCCN(c4ccc(F)cc4)C3)c2)c1 [Example 453]               nM              41
2  NC(=O)c1cccc(-c2ccnc(N[C@@H]3CCCC[C@H]3N[C@H]3CCCN(c4ccc(-n5cccn5)cc4)C3)c2)c1 [Example 511]               nM              23
3  Cn1nnc(-c2ccc(N3CCC[C@H](N[C@@H]4CCCC[C@H]4Nc4cc(-c5cccc(C(N)=O)c5)ccn4)C3)cc2)n1 [Example 505]               nM               9
4  Cc1noc(-c2ccc(N3CCC[C@H](N[C@@H]4CCCC[C@H]4Nc4cc(-c5cccc(C(N)=O)c5)ccn4)C3)cc2)n1 [Example 374]               nM               2
5  NC(=O)c1cccc(-c2ccnc(N[C@@H]3CCCC[C@H]3N[C@H]3CCCN(c4ccc5ncnn5c4)C3)c2)c1 [Example 481]               nM              34
6  Nc1cccc(-c2cnc(N[C@@H]3CCCC[C@H]3N[C@H]3CCCN(c4cnc(C(F)(F)F)nc4)C3)o2)c1 [Example 412]               nM              69
7  NC(=O)c1cccc(-c2ccnc(N[C@@H]3CCCC[C@H]3N[C@H]3CCCN(c4ccc(-c5noc(C6CC6)n5)cn4)C3)c2)c1 [Example 451]               nM               4
8  Cc1nnc(-c2ccc(N3CCCC(N[C@@H]4CCCC[C@H]4Nc4cc(-c5cccnc5)ccn4)C3)cc2)o1 (stereo partly shown) [Example 345]               nM              64

(1) Fc1ccc(-c2cnc(N[C@@H]3CCCC[C@H]3N[C@H]3CCCN(c4cnc(C(F)(F)F)nc4)C3)o2)c(F)c1 [Example 403]
(2) COC(=O)Nc1cccc(-c2ccnc(N[C@@H]3CCCC[C@H]3N[C@H]3CCCN(c4ccc(-c5noc(C)n5)cc4)C3)c2)c1 [Example 339]
input: Higher EC50 between 1 and 2 ? Could you answer with the label of the item you picked?
output: 1

###

- TESTED ON: human Y4 receptor (Homo sapiens)
- Construct: expressed in transfected cells
- TEST NAME: NPY4 cAMP HTRF Agonist Assay (inhibitory cAMP assay, Gi activation by Y4 agonism)
- Type: cell-based
- DETAILS: TABLE 2, R2 is Phenyl-CN; read-out: hY4 CAMP EC50
pEC50: −log10 of the molar value.
OUTCOME MEASURE: pEC50

Answered examples (5):
> print(dat)
                                   compound  outcome.measure  reported.value
1  N#Cc1ccc(N2CCC[C@H](N[C@@H]3CCCC[C@H]3Nc3cc(-c4cccc(N)c4)ccn3)C2)cc1            pEC50            7.92
2  COC(=O)Nc1cccc(-c2ccnc(N[C@@H]3CCCC[C@H]3N[C@H]3CCCN(c4ccc(C#N)cc4)C3)c2)c1 [Example 200]            pEC50            8.52
3  N#Cc1ccc(N2C[C@@H]3C[C@H](N[C@@H]4CCCC[C@H]4Nc4cc(-c5ccc(OC(F)F)cc5)ccn4)[C@H]2C3)cc1            pEC50            7.80
4  N#Cc1ccc(N2CCC[C@H](N[C@@H]3CCCC[C@H]3Nc3cc(-c4cc(C#N)cs4)ccn3)C2)cc1            pEC50            6.65
5  C=C(C)c1ccnc(N[C@@H]2CCCC[C@H]2N[C@H]2CCCN(c3ccc(C#N)cc3)C2)c1            pEC50            6.52

(I) N#Cc1ccc(N2C[C@@H]3C[C@H](N[C@@H]4CCCC[C@H]4Nc4cc(-c5ccccc5)ccn4)[C@H]2C3)cc1
(II) N#Cc1ccc(N2C[C@@H]3C[C@H](N[C@@H]4CCCC[C@H]4Nc4ncc(-c5cccc(C(N)=O)c5)o4)[C@H]2C3)cc1
(III) CN(C)c1cccc(-c2ccnc(N[C@@H]3CCCC[C@H]3N[C@H]3CCCN(c4ccc(C#N)cc4)C3)c2)c1
(IV) N#Cc1ccc(N2CCC[C@H](N[C@@H]3CCCC[C@H]3Nc3cc(-c4ccco4)ccn3)C2)cc1
(V) N#Cc1ccc(N2CCC[C@H](N[C@@H]3CCCC[C@H]3Nc3cc(-c4ccc(C#N)s4)ccn3)C2)cc1
input: List the 5 entries from lowest pEC50 to highest pEC50 value. When ranking, write the labels in the order the request describes.
output: V, III, I, IV, II
(V: 6.27, III: 7.14, I: 7.43, IV: 7.82, II: 8.15)

(P) N#Cc1ccc(N2CCC[C@H](N[C@@H]3CCCC[C@H]3Nc3cc(-c4cncc5ccccc45)ccn3)C2)cc1
(Q) N#Cc1ccc(N2CCC[C@H](N[C@@H]3CCCC[C@H]3Nc3cc(-c4cccc(S(N)(=O)=O)c4)ccn3)C2)cc1
(R) CS(=O)(=O)NCc1ccc(-c2ccnc(N[C@@H]3CCCC[C@H]3N[C@H]3CCCN(c4ccc(C#N)cc4)C3)c2)cc1
(S) N#Cc1ccc(N2CCC[C@H](N[C@@H]3CCCC[C@H]3Nc3cc(-c4cccc5cn[nH]c45)ccn3)C2)cc1
(T) C=Cc1ccnc(N[C@@H]2CCCC[C@H]2N[C@H]2CCCN(c3ccc(C#N)cc3)C2)c1
input: List the 5 entries from lowest pEC50 to highest pEC50 value. When ranking, write the labels in the order the request describes.
output: R, T, P, S, Q

(I) CC(C)(C)c1cccc(-c2ccnc(N[C@@H]3CCCC[C@H]3N[C@H]3CCCN(c4ccc(C#N)cc4)C3)c2)c1
(II) N#Cc1ccc(N2CCC[C@H](N[C@@H]3CCCC[C@H]3Nc3cc(-n4cccn4)ccn3)C2)cc1
(III) N#Cc1ccc(N2CCC[C@H](N[C@@H]3CCCC[C@H]3Nc3cc(-c4ccc5[nH]ncc5c4)ccn3)C2)cc1
(IV) CC(=O)Nc1cccc(-c2ccnc(N[C@@H]3CCCC[C@H]3N[C@H]3CCCN(c4ccc(C#N)cc4)C3)c2)c1
input: Place the items in sequence of falling pEC50. When ranking, write the labels in the order the request describes.
output: IV, I, II, III
(IV: 9.00, I: 7.23, II: 6.75, III: 6.19)

(A) CNC(=O)c1cccc(-c2ccnc(N[C@@H]3CCCC[C@H]3N[C@H]3CCCN(c4ccc(C#N)cc4)C3)c2)c1
(B) N#Cc1ccc(N2CCC[C@H](N[C@@H]3CCCC[C@H]3Nc3cc(-c4ccccn4)ccn3)C2)cc1
input: Higher pEC50 between A and B ? Could you answer with the label of the item you picked?
output: A
(A: 8.05, B: 6.33)

(a) CC(C)(O)c1cccc(-c2ccnc(N[C@@H]3CCCC[C@H]3N[C@H]3CCCN(c4ccc(C#N)cc4)C3)c2)c1
(b) N#Cc1ccc(N2CCC[C@H](N[C@@H]3CCCC[C@H]3Nc3cc(-c4ccccc4Cl)ccn3)C2)cc1
input: Higher pEC50 between a and b ? Could you answer with the label of the item you picked?
output: a
(a: 7.96, b: 6.25)

(A) N#Cc1ccc(N2C[C@@H]3C[C@H](N[C@@H]4CCCC[C@H]4Nc4cc(-c5cccc(O)c5)ccn4)[C@H]2C3)cc1
(B) C[C@@H](O)c1cccc(-c2ccnc(N[C@@H]3CCCC[C@H]3N[C@H]3CCCN(c4ccc(C#N)cc4)C3)c2)c1
(C) COc1ccccc1-c1ccnc(N[C@@H]2CCCC[C@H]2N[C@H]2CCCN(c3ccc(C#N)cc3)C2)c1
(D) N#Cc1ccc(N2CCC[C@H](N[C@@H]3CCCC[C@H]3Nc3cc(-c4cccc(N)n4)ccn3)C2)cc1
input: List the 4 entries from lowest pEC50 to highest pEC50 value. When ranking, write the labels in the order the request describes.
output: C, D, B, A
